Hi there, I'd appreciate the recorded EC50, CreLuc reporter, 0.5% hP for every entry that follows.
- Target system: T1, human neuropeptide Y2 receptor (human, UniProt P49146 1-381)
- T1 sequence (looked up): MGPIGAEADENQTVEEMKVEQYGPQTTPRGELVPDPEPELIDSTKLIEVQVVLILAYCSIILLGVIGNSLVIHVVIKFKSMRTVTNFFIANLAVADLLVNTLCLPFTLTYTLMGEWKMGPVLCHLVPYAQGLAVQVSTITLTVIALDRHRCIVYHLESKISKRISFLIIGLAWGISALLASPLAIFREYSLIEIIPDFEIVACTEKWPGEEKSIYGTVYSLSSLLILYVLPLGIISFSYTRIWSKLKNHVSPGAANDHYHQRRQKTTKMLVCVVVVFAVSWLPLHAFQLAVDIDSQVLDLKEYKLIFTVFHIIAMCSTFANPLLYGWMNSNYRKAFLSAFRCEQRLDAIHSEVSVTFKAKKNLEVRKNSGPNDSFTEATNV
- Measurement protocol: cell-based or functional assay
*1 amine or outer side, *2 acyl side, *3 side chain or, on linkers, in order; H or OH if unused. Where no end group is shown, it is not given here. Side-chain parts run from the residue outwards. [ ]: non-standard residue; d: D form. The star is where a group is joined. C20 diacid = O=C(O)CCCCCCCCCCCCCCCCCCC(=O)*; C18 diacid = O=C(O)CCCCCCCCCCCCCCCCC(=O)*; γGlu = O=C(O)[C@H](CCC(=O)[*:2])N[*:1]; εLys = N[C@@H](CCCCN[*:1])C(=O)[*:2]; TRX = not defined here; AEEA = NCCOCCOCC(=O)O; Aib = CC(C)(N)C(=O)O; Ahx = NCCCCCC(=O)O
One number for each entry, in nM.

Sample records with EC50, CreLuc reporter, 0.5% hP:
YXEGTFTSDYSIXLEEQAQXAFVRHLINKXTRQRY (Aib at 2, 13, 20, 30; Lys29 epsilon-amino acylated with C18DA-gGlu-gGlu-gGlu-gGlu-gGlu; C-terminal amide) [Compound 75]	191
YXEGTFTSDYSIXLEKQAYXAFVRHLINKXTRQRY (Aib at 2, 13, 20, 30; Lys29 epsilon-amino acylated with C18DA-gGlu-gGlu-gGlu-gGlu-gGlu-gGlu-eLys; C-terminal amide) [Compound 84]	18.5
Y[Aib]EGTFTSDYSI[Aib]LEEEAQ[Aib]EFVRHLINK([γGlu-γGlu-γGlu-γGlu-C18 diacid])[Aib]TRQRY-NH2 [Compound 64]	162
YXEGTFTSDYSIXLENQAQXAFVRHLINKXTRQRY (Aib at 2, 13, 20, 30; Lys29 epsilon-amino acylated with C18DA-gGlu-gGlu-gGlu-gGlu-gGlu-gGlu-eLys; C-terminal amide) [Compound 6]	14.7
Y[Aib]EGTFTSDYSI[Aib]LEEQAQ[Aib]AFVRHLINK([εLys-γGlu-γGlu-γGlu-γGlu-γGlu-C18 diacid])[Aib]TRQRY-NH2 [Compound 48]	11.6
YXEGTFTSDYSIXLELQAQXAFVRHLINKXTRQRY (Aib at 2, 13, 20, 30; Lys29 epsilon-amino acylated with C18DA-gGlu-gGlu-gGlu-gGlu-gGlu-gGlu-eLys; C-terminal amide) [Compound 65]	65.8
Y[Aib]EGTFTSDYSI[Aib]LEKQAQ[Aib]AFVRHLINK([Ahx-γGlu-γGlu-γGlu-γGlu-γGlu-γGlu-C18 diacid])[Aib]TRQRY-NH2 [Compound 9]	25.1
YXEGTFTSDYSIXLEKQAEXAFVRHLINKXTRQRY (Aib at 2, 13, 20, 30; Lys29 epsilon-amino acylated with C18DA-gGlu-gGlu-gGlu-gGlu-gGlu-gGlu-eLys; C-terminal amide) [Compound 10]	26.3

Please give EC50, CreLuc reporter, 0.5% hP for each item listed below.
1. Y[Aib]EGTFTSDYSI[Aib]LEKQAQ[Aib]AFVRHLINK([γGlu-γGlu-γGlu-γGlu-γGlu-γGlu-C18 diacid])LTRQRY-NH2 [Compound 12]
2. Y[Aib]EGTFTSDYSI[Aib]LEKQAQ[Aib]AFVRHLINK([γGlu-γGlu-γGlu-γGlu-γGlu-γGlu-TRX-C18 diacid])[Aib]TRQRY-NH2 (reading uncertain) [Compound 31]
3. Y[Aib]EGTFTSDYSI[Aib]LEKQAQ[Aib]AFVRHLINK([εLys-γGlu-γGlu-γGlu-γGlu-γGlu-γGlu-γGlu-C20 diacid])[Aib]TRQRY-NH2 [Compound 35]
4. YXEGTFTSDYSIXLEKQAQXAFLRHLINKXTRQRY (Aib at 2, 13, 20, 30; Lys29 epsilon-amino acylated with C18DA-gGlu-gGlu-gGlu-gGlu-gGlu-gGlu-eLys; C-terminal amide) [Compound 37]
5. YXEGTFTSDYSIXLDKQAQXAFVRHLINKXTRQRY (Aib at 2, 20, 30; aMeL at 13; Lys29 epsilon-amino acylated with C18DA-gGlu-gGlu-gGlu-gGlu-gGlu-gGlu-eLys; C-terminal amide) [Compound 67]
6. YXEGTFTSDYSIXLEKQAQXAFIRHLINKXTRQRY (Aib at 2, 20, 30; aMeL at 13; Lys29 epsilon-amino acylated with C18DA-gGlu-gGlu-gGlu-gGlu-gGlu-gGlu-eLys; C-terminal amide) [Compound 76]

Reply:
[47.6, 76.4, 22.9, 11.9, 18.1, 7.2]

Please give EC50, CreLuc reporter, 0.5% hP for each item listed below.
1. Y[Aib]EGTFTSDYSI[Aib]LEEEAQ[Aib]AFVRHLINK([γGlu-γGlu-γGlu-γGlu-C18 diacid])[Aib]TRQRY-NH2 [Compound 25]
2. YXEGTFTSDYSIXLEKQAQXEFVRHLINKLTRQRY (Aib at 2, 13, 20; Lys29 epsilon-amino acylated with C18DA-gGlu-gGlu-gGlu-gGlu-gGlu-AHX; C-terminal amide) [Compound 45]
3. YXEGTFTSDYSIXLDKQAQXAFIRHLINKXTRQRY (Aib at 2, 13, 20, 30; Lys29 epsilon-amino acylated with C20DA-gGlu-gGlu-gGlu-gGlu-gGlu-gGlu-eLys; C-terminal amide) [Compound 81]
4. Y[Aib]EGTFTSDYSI[Aib]LEKQAQ[Aib]AFVRHLINK([γDab-γGlu-γGlu-γGlu-γGlu-γGlu-γGlu-C20 diacid])[Aib]TRQRY-NH2 [Compound 46]
5. YXEGTFTSDLSIXLEKQAQXAFVRHLINKXTRQRY (Aib at 2, 13, 20, 30; Lys29 epsilon-amino acylated with C20DA-gGlu-gGlu-gGlu-gGlu-gGlu-AHX-AHX; C-terminal amide) [Compound 1]

Reply:
[89.2, 19.8, 7.2, 28.4, 12.6]

Please give EC50, CreLuc reporter, 0.5% hP for each item listed below.
1. YXEGTFTSDYSIXLEKQAQAAFVRHLINKXTRQRY (Aib at 2, 13, 30; Lys29 epsilon-amino acylated with C18DA-gGlu-gGlu-gGlu-gGlu-gGlu-gGlu-eLys; C-terminal amide) [Compound 61]
2. Y[Aib]EGTFTSDYSI[Aib]LEKQAQ[Aib]AFVRHLINK([AEEA-γGlu-γGlu-γGlu-γGlu-γGlu-γGlu-C18 diacid])[Aib]TRQRY-NH2 [Compound 47]

Reply:
1. 24.1
2. 19.9
